system-under-test: Muscarinic acetylcholine receptor M1 (Rattus norvegicus)
procedure-text: M5 positive allosteric modulators, analog testing, SAR follow-up, CHO cells, calcium, ACh EC10, single 30 µM (AID 2665);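 also: 100% = response to a maximal acetylcholine concentration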
condition-notes: rat M1 potentiation, CHO calcium; at 30 µM; stronger effect = higher value
Quick reference for % ACh max response among some molecules
quantity: % ACh max response

>  <query-smiles>
COc1ccc(-c2ccc(CN3C(=O)C(=O)c4ccccc43)cc2)cc1

>  <observed-result>
20.1%

$$$$
>  <query-smiles>
O=C1C(=O)N(Cc2ccccc2C(F)(F)F)c2ccc(Cl)cc21

>  <observed-result>
29.6%

$$$$
>  <query-smiles>
O=C1C(=O)N(CCc2ccc(Br)cc2)c2ccccc21

>  <observed-result>
52.4%

$$$$
>  <query-smiles>
O=C1C(=O)N(Cc2ccc(C(F)(F)F)cc2)c2ccc(OC(F)(F)F)cc21

>  <observed-result>
25.7%

$$$$
>  <query-smiles>
O=C1C(=O)N(Cc2ccc(OC(F)(F)F)cc2)c2ccccc21

>  <observed-result>
54.7%

$$$$
>  <query-smiles>
O=C1C(=O)N(Cc2ccc(OC(F)(F)F)cc2)c2ccc(OC(F)(F)F)cc21

>  <observed-result>
13.8%

$$$$
>  <query-smiles>
COc1ccc(CN2C(=O)C(=O)c3cc(OC(F)(F)F)ccc32)cc1

>  <observed-result>
12.7%

$$$$
>  <query-smiles>
COc1cccc(CN2C(=O)C(=O)c3ccccc32)c1

>  <observed-result>
19.4%

$$$$
>  <query-smiles>
Cc1ccccc1CN1C(=O)C(=O)c2cc(Cl)ccc21

>  <observed-result>
27.6%

$$$$
>  <query-smiles>
O=C1C(=O)N(Cc2ccc(Br)cc2)c2ccc(OC(F)(F)F)cc21

>  <observed-result>
13.2%

$$$$
>  <query-smiles>
O=C1C(=O)N(Cc2ccc(F)cc2F)c2c(Cl)cccc21

>  <observed-result>
64.6%

$$$$
>  <query-smiles>
O=C1C(=O)N(Cc2ccc(-c3ccc(Cl)c(Cl)c3)cc2)c2ccccc21

>  <observed-result>
35.3%

$$$$
>  <query-smiles>
CCCOc1ccc(-c2ccc(CN3C(=O)C(=O)c4ccccc43)cc2)cc1

>  <observed-result>
24.2%

$$$$
>  <query-smiles>
O=C1C(=O)N(Cc2ccccc2Cl)c2c(Cl)ccc(Cl)c21

>  <observed-result>
13.1%

$$$$
>  <query-smiles>
O=C1C(=O)N(Cc2ccc(OC(F)(F)F)cc2)c2ccc(Cl)cc21

>  <observed-result>
31.3%

$$$$
>  <query-smiles>
O=C1C(=O)N(Cc2ccc(-c3ccc(F)nc3)cc2)c2ccccc21

>  <observed-result>
41%

$$$$
>  <query-smiles>
O=C1C(=O)N(Cc2ccc(F)cc2F)c2ccc(Cl)cc21

>  <observed-result>
32.4%

$$$$
>  <query-smiles>
COc1ccc(CN2C(=O)C(=O)c3cc(F)ccc32)cc1

>  <observed-result>
41.1%

$$$$
>  <query-smiles>
COc1ccc(CN2C(=O)C(=O)c3c(Cl)ccc(Cl)c32)cc1

>  <observed-result>
18.6%

$$$$
>  <query-smiles>
O=C1C(=O)N(Cc2ccccc2C(F)(F)F)c2ccc(OC(F)(F)F)cc21

>  <observed-result>
22.6%

$$$$
>  <query-smiles>
O=C1C(=O)N(Cc2c(F)cccc2F)c2ccc(OC(F)(F)F)cc21

>  <observed-result>
13.6%

$$$$
>  <query-smiles>
O=C1C(=O)N(Cc2ccc(Br)cc2F)c2c(Cl)ccc(Cl)c21

>  <observed-result>
9.93%

$$$$
>  <query-smiles>
O=C1C(=O)N(Cc2ccc(F)cc2F)c2c(Cl)ccc(Cl)c21

>  <observed-result>
17.2%

$$$$

Value source: PubChem BioAssay AID2665
